Numbers sourced from patent US7541367B2.

target: CDK1 (Homo sapiens, UniProt P06493)
Sequence (P06493 whole entry): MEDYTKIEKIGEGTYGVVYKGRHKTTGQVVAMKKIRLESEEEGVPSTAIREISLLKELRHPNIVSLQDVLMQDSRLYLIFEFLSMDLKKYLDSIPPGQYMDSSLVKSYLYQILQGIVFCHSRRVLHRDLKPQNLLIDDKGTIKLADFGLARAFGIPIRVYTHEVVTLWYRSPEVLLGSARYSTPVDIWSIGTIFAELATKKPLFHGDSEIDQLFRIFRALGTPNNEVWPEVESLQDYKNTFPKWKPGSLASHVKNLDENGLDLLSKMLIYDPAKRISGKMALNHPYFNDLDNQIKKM
Sequence (P14635 whole entry partner): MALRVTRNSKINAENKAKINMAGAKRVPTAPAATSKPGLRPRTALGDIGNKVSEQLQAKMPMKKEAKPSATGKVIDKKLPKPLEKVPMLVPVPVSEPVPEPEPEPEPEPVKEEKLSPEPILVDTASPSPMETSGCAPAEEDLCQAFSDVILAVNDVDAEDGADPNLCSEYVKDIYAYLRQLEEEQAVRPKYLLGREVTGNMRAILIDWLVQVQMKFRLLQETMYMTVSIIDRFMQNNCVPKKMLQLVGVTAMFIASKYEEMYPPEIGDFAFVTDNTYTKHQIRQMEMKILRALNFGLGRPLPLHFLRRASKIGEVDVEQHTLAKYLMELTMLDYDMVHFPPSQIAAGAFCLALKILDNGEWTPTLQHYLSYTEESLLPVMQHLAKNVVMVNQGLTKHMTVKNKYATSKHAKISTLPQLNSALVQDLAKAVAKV
quantity-name: IC50 (nM)

CCCNCc1cncc(-c2cnc3[nH]nc(-c4nc5cc(N6CCN(C)CC6)ccc5[nH]4)c3c2)c1 1.84
CN(C)CCN(C)C(=O)c1cccc2[nH]c(-c3n[nH]c4ncc(-c5cncc6ccccc56)cc34)nc12 244
CNCc1cncc(-c2cnc3[nH]nc(-c4nc5c(COC)cccc5[nH]4)c3c2)c1C 68.1
CCNCc1cncc(-c2cnc3[nH]nc(-c4nc5cc(OC)ccc5[nH]4)c3c2)c1 0.8

###

molecular target: VEGF-R2 (Rattus norvegicus, UniProt O08775);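 also: Read-out is ³³P incorporation from ³³P-γ-ATP into biotinylated peptide substrate captured on streptavidin FlashPlate, counted by scintillation, 1% DMSO final, inhibition scaled between per-plate maximum and minimum signals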
Sequence (O08775 786-1343): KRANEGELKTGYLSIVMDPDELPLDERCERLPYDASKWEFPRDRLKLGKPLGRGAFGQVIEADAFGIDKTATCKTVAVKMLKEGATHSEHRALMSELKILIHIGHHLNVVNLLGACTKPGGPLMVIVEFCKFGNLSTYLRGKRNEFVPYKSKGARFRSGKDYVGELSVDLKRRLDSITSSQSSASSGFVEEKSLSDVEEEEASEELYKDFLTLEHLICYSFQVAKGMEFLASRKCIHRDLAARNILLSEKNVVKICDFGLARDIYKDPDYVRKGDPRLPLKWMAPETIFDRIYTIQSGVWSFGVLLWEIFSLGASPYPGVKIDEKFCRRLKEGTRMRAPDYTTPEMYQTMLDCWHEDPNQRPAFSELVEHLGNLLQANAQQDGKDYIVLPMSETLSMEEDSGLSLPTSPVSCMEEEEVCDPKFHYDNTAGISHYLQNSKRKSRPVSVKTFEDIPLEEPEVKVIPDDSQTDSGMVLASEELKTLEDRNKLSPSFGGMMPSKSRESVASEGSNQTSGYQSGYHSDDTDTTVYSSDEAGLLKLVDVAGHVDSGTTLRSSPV
pIC50: −log10 of the molar value.
quantity-name: pIC50

FC1(F)Oc2cc3nc(-c4n[nH]c5ncc(-c6cccnc6)cc45)[nH]c3cc2O1 < 7.00
CCNCc1cncc(-c2cnc3[nH]nc(-c4nc5cc(OC)ccc5[nH]4)c3c2)c1 < 7.00
CCN(CC)c1ccc(NC(=O)c2cccc3[nH]c(-c4n[nH]c5ncc(-c6cncc7ccccc67)cc45)nc23)c(C)c1 < 4.00
COCCNCc1cncc(-c2cnc3[nH]nc(-c4nc5cc(N6CCN(C)CC6)ccc5[nH]4)c3c2)c1 ~7.00
COCc1cccc2[nH]c(-c3n[nH]c4ncc(-c5ccc(F)nc5)cc34)nc12 ~6.00
CN(C)CCNC(=O)c1cccc2[nH]c(-c3n[nH]c4ncc(-c5cncc6ccccc56)cc34)nc12 ~4.00

###

pIC50 listing for selected compounds.
molecular target: Aurora-A (Mus musculus); construct: polyhistidine (N); assay: Aurora-A kinase screening assay (33P-ATP FlashPlate); assay type: biochemical; conditions: 10 μM ATP, 1 hr at 30° C
pIC50: −log10 of the molar value.
quantity-name: pIC50

compound	experimental-target	quantity-name	test-result
COCCNCc1cncc(-c2cnc3[nH]nc(-c4nc5c(COC)cccc5[nH]4)c3c2)c1	Aurora-A (Mus musculus)	pIC50	5.35
NC1CCC(NC(=O)c2cccc3[nH]c(-c4n[nH]c5ncc(-c6cncc7ccccc67)cc45)nc23)CC1 (stereo not shown)	Aurora-A (Mus musculus)	pIC50	7.40
OCCOc1ccc2[nH]c(-c3n[nH]c4ncc(-c5cccnc5)cc34)nc2c1	Aurora-A (Mus musculus)	pIC50	6.64
CCN(CC)Cc1cccc2[nH]c(-c3n[nH]c4ncc(Br)cc34)nc12	Aurora-A (Mus musculus)	pIC50	6.01
CNCc1cncc(-c2cnc3[nH]nc(-c4nc5cc(N6CCN(C)CC6)ccc5[nH]4)c3c2)c1	Aurora-A (Mus musculus)	pIC50	6.76
CCNCc1cncc(-c2cnc3[nH]nc(-c4nc5ccc(F)cc5[nH]4)c3c2)c1	Aurora-A (Mus musculus)	pIC50	6.10
CN1CCN(c2ccc3[nH]c(-c4n[nH]c5ncc(-c6cccnc6)cc45)nc3c2)CC1	Aurora-A (Mus musculus)	pIC50	6.65
CCCNCc1cncc(-c2cnc3[nH]nc(-c4nc5cc(OC)ccc5[nH]4)c3c2)c1	Aurora-A (Mus musculus)	pIC50	6.57
CCN(CC)Cc1cccc2[nH]c(-c3n[nH]c4ncc(-c5cccnc5)cc34)nc12	Aurora-A (Mus musculus)	pIC50	5.44
COCc1cccc2[nH]c(-c3n[nH]c4ncc(-c5c[nH]c6ncccc56)cc34)nc12	Aurora-A (Mus musculus)	pIC50	6.72
CC(C)NCc1cccc2[nH]c(-c3n[nH]c4ncc(-c5cncc6ccccc56)cc34)nc12	Aurora-A (Mus musculus)	pIC50	5.44

###

target: Aurora-A (Mus musculus, UniProt P97477)
Sequence (P97477 whole entry): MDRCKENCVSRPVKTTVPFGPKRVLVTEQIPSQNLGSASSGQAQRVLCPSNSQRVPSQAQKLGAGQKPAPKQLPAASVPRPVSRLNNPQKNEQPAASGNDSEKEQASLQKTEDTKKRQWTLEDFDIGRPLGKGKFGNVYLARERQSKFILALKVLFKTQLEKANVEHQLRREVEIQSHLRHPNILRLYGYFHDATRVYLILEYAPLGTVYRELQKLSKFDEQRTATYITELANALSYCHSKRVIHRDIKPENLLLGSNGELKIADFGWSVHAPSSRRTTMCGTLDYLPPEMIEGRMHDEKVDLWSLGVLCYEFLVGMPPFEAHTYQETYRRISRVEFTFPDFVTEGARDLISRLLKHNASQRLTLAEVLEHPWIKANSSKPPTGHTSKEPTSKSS
A collection of compounds and their measured IC50
quantity-name: IC50

COCc1cccc2[nH]c(-c3n[nH]c4ncc(Br)cc34)nc12 ~10 µM
COC(=O)c1cccc2[nH]c(-c3n[nH]c4ncc(-c5cncc6ccccc56)cc34)nc12 ~100 µM
CCOCCOCc1cccc2[nH]c(-c3n[nH]c4ncc(-c5cncc6ccccc56)cc34)nc12 > 1 µM
COCc1cccc2[nH]c(-c3n[nH]c4ncc(-c5cncc(C=NO)c5)cc34)nc12 > 10 µM
COCc1cccc2[nH]c(-c3n[nH]c4ncc(-c5ccncc5)cc34)nc12 > 1 µM
CNCc1cncc(-c2cnc3[nH]nc(-c4nc5cc6c(cc5[nH]4)OC(F)(F)O6)c3c2)c1 ~10 µM
COCc1cccc2[nH]c(-c3n[nH]c4ncc(-c5ccc(S(N)(=O)=O)cc5)cc34)nc12 > 1 µM
COCc1cccc2[nH]c(-c3n[nH]c4ncc(-c5ccc(N6CCOCC6)nc5)cc34)nc12 > 1 µM
COCc1cccc2[nH]c(-c3n[nH]c4ncc(-c5cn(S(=O)(=O)c6ccccc6)c6ccccc56)cc34)nc12 ~100 µM
COCc1cccc2[nH]c(-c3n[nH]c4ncc(-c5cc[nH]c5)cc34)nc12 ~1 µM
CC(C)OCc1cccc2[nH]c(-c3n[nH]c4ncc(-c5cncc6ccccc56)cc34)nc12 > 1 µM
CCNCc1cncc(-c2cnc3[nH]nc(-c4nc5cc(F)c(F)cc5[nH]4)c3c2)c1 > 1 µM
COCc1cccc2[nH]c(-c3n[nH]c4ncc(-c5c[nH]c6ccccc56)cc34)nc12 > 1 µM
O=C(O)c1cccc2[nH]c(-c3n[nH]c4ncc(-c5cncc6ccccc56)cc34)nc12 > 10 µM
